Target: T1, Recombinant human MASP1 enzyme (fragment corresponding to amino acids 297-699, C-terminal His Tag) (human, UniProt P48740 297-699)
T1 sequence: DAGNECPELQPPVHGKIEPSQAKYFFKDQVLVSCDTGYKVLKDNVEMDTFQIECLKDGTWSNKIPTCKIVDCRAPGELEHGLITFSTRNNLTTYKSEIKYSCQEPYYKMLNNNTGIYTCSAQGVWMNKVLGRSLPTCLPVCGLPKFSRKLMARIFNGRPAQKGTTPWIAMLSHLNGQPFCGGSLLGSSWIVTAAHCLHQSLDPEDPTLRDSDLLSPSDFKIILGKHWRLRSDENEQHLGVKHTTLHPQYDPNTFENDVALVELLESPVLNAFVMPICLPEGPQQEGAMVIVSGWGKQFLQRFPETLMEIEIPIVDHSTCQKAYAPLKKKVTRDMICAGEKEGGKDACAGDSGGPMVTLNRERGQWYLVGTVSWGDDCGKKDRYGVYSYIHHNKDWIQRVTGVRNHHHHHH
Experiment: cell-based or functional assay
Numbered stars: 1 amine (or outer) side, 2 acyl side, 3 side chain; on linkers, the order of the positions; unused ones are H or OH. Bridge positions count the residues as written; N and C are the ends. Square brackets hold non-standard residues; d marks the D form. Ends that are not written are not given here. Pro(3S,4R-methano) = O=C(O)[C@H]1NC[C@@H]2C[C@@H]21; NH(CH2CH2O)4CH2CO = O=C(COCCOCCOCCOCCN[*:1])[*:2]; tBuAla = CC(C)(C)C[C@H](N)C(=O)O; Pen = CC(C)(S)[C@H](N)C(=O)O; Sar = CNCC(=O)O
I'd be grateful if you could share measured human MASP1 IC50 for these entries.
One number for each entry, in nM.

binder	human MASP1 IC50 / nM
[Sar]ICSRS[tBuAla]PPI[Pen]IP[NH(CH2CH2O)4CH2CO]-OH (disulfide 3-11; N-terminus assumed; SMILES CC[C@H](C)[C@H](NC(=O)CNC)C(=O)N[C@H]1CSSC(C)(C)[C@@H](C(=O)N[C@H](C(=O)N2CCC[C@H]2C(=O)NCCOCCOCCOCCOCC(=O)O)[C@@H](C)CC)NC(=O)[C@H]([C@@H](C)CC)NC(=O)[C@@H]2CCCN2C(=O)[C@@H]2CCCN2C(=O)[C@H](CC(C)(C)C)NC(=O)[C@H](CO)NC(=O)[C@H](CCCNC(=N)N)NC(=O)[C@H](CO)NC1=O) [((N-Me)G)-IC+SRS-((tBu)A)-PPI-(Pen)+IP-(PEG4-CH2CO2H(15 atoms))-OH]	6.2

From here, focus on the item given below.
Exam item: Given [Sar]ICSRS[tBuAla]P[Pro(3S,4R-methano)]I[Pen]IPD-OH (disulfide 3-11; N-terminus assumed; SMILES CC[C@H](C)[C@H](NC(=O)CNC)C(=O)N[C@H]1CSSC(C)(C)[C@@H](C(=O)N[C@H](C(=O)N2CCC[C@H]2C(=O)N[C@@H](CC(=O)O)C(=O)O)[C@@H](C)CC)NC(=O)[C@H]([C@@H](C)CC)NC(=O)[C@@H]2[C@H]3C[C@H]3CN2C(=O)[C@@H]2CCCN2C(=O)[C@H](CC(C)(C)C)NC(=O)[C@H](CO)NC(=O)[C@H](CCCNC(=N)N)NC(=O)[C@H](CO)NC1=O) [((N-Me)G)-IC+SRS-((tBu)A)-P-((1S,2S,5R)-3-azabicyclo[3.1.0]hexane-2-carboxylic acid)-I-(Pen)+IPD-OH] , respond with its human MASP1 IC50.
Marked response: 6.6

Values were extracted from patent US20210246166A1.
